Provide the recorded Ki for the entries that follow.

Record `Fc1cccc(-n2cnnc2-c2c[nH]c3ncc(-c4ccc(N5CCCC5)nc4)cc23)c1F` ; system KDR (Homo sapiens); Ki = 200 to 1000 nM

Record CN1CCN(c2ccc(-c3cnc4[nH]cc(-c5oncc5-c5cccc(F)c5F)c4c3)cc2)CC1 [Compound 70, methanesulfonate] ; system KDR (Homo sapiens); Ki = < 200 nM

Record `CN(C)CCNc1ccc(-c2cnc3[nH]cc(-c4nncn4-c4cccc(F)c4F)c3c2)cn1` ; system KDR (Homo sapiens); Ki = 200 to 1000 nM

Record `Fc1cccc(-c2cnoc2-c2c[nH]c3ncc(CCn4cncn4)cc23)c1F` ; system KDR (Homo sapiens); Ki = 1000 to 12500 nM

Record `COc1cnc2[nH]cc(-c3oncc3-c3cccc(F)c3F)c2c1` ; system KDR (Homo sapiens); Ki = 200 to 1000 nM

Record `COc1cnc2[nH]cc(-c3oncc3-c3cccc(Cl)c3Cl)c2c1` ; system KDR (Homo sapiens); Ki = < 200 nM

Record `CN(C)C(=O)c1ccc(-c2cnc3[nH]cc(-c4oncc4-c4cccc(F)c4F)c3c2)nc1` ; system KDR (Homo sapiens); Ki = < 200 nM

Record `Cc1cnc2[nH]cc(-c3oncc3-c3cccc(F)c3F)c2c1` ; system KDR (Homo sapiens); Ki = 200 to 1000 nM
